Just for reference, the supplement of paper PMC10307832 is where these values come from.

Test system: UMC-11
Test: relative viability (nuclei count vs DMSO), 5 days (fraction); higher = more cells survive
Conditions: first compound 0.02 µM
# strict inequality: relative viability < 0.4 yields satisfied, everything else yields not satisfied

Worked cases, answers included:
Compound	Measured target	Assigned category
CCNC(=O)c1noc(-c2cc(C(C)C)c(O)cc2O)c1-c1ccc(CN2CCOCC2)cc1 [Luminespib] + CC(C)C[C@H](NC(=O)[C@H](Cc1ccccc1)NC(=O)c1cnccn1)B(O)O [Bortezomib] (partner 0.002 µM)	UMC-11	satisfied
CCNC(=O)c1noc(-c2cc(C(C)C)c(O)cc2O)c1-c1ccc(CN2CCOCC2)cc1 [Luminespib] + O=C(CCCCCCC(=O)Nc1ccccc1)NO [Vorinostat] (partner 1 µM)	UMC-11	satisfied
CN1CCN(CCOc2cc(OC3CCOCC3)c3c(Nc4c(Cl)ccc5c4OCO5)ncnc3c2)CC1 [Saracatinib] + O=C(c1cc(Cc2n[nH]c(=O)c3ccccc23)ccc1F)N1CCN(C(=O)C2CC2)CC1 [Olaparib] (partner 8 µM)	UMC-11	not satisfied
CN1CCN(CCOc2cc(OC3CCOCC3)c3c(Nc4c(Cl)ccc5c4OCO5)ncnc3c2)CC1 [Saracatinib] + COc1cc2c(Oc3ccc(NC(=O)C4(C(=O)Nc5ccc(F)cc5)CC4)cc3F)ccnc2cc1OCCCN1CCOCC1 [Foretinib] (partner 0.25 µM)	UMC-11	not satisfied
CN1CCN(CCOc2cc(OC3CCOCC3)c3c(Nc4c(Cl)ccc5c4OCO5)ncnc3c2)CC1 [Saracatinib] + Cc1nc(Nc2ncc(C(=O)Nc3c(C)cccc3Cl)s2)cc(N2CCN(CCO)CC2)n1 [Dasatinib] (partner 0.075 µM)	UMC-11	not satisfied

I wonder whether CN1CCN(CCOc2cc(OC3CCOCC3)c3c(Nc4c(Cl)ccc5c4OCO5)ncnc3c2)CC1 [Saracatinib] + C[C@@H](Oc1cc(-c2cnn(C3CCNCC3)c2)cnc1N)c1c(Cl)ccc(F)c1Cl [Crizotinib] (partner 1 µM) has relative viability below 0.4. Can you tell?
not satisfied

I wonder whether CCNC(=O)c1noc(-c2cc(C(C)C)c(O)cc2O)c1-c1ccc(CN2CCOCC2)cc1 [Luminespib] + C[C@]1(O)C[C@@H](c2nc(-c3ccc4ccc(-c5ccccc5)nc4c3)c3c(N)nccn32)C1 [Linsitinib] (partner 1 µM) has relative viability below 0.4. Can you tell?
not satisfied

I wonder whether CCNC(=O)c1noc(-c2cc(C(C)C)c(O)cc2O)c1-c1ccc(CN2CCOCC2)cc1 [Luminespib] + Cc1nc(Nc2ncc(C(=O)Nc3c(C)cccc3Cl)s2)cc(N2CCN(CCO)CC2)n1 [Dasatinib] (partner 0.075 µM) has relative viability below 0.4. Can you tell?
satisfied

I wonder whether CN1CCN(CCOc2cc(OC3CCOCC3)c3c(Nc4c(Cl)ccc5c4OCO5)ncnc3c2)CC1 [Saracatinib] + O=C(CCCCCCC(=O)Nc1ccccc1)NO [Vorinostat] (partner 1 µM) has relative viability below 0.4. Can you tell?
satisfied

* * *

Measured relative viability, listed per entry.
Test system: SK-MES-1
Assay: relative viability (nuclei count vs DMSO), 5 days (fraction); higher = more cells survive
Conditions: first compound 0.002 µM
Keep it simple and answer with nothing but the number.

These recorded examples may help you get a feel for the data.
Compound	Reported result
CCNC(=O)c1noc(-c2cc(C(C)C)c(O)cc2O)c1-c1ccc(CN2CCOCC2)cc1 [Luminespib] + Nc1nc2[nH]cc(CCc3ccc(C(=O)N[C@@H](CCC(=O)O)C(=O)O)cc3)c2c(=O)[nH]1 [Pemetrexed] (partner 0.2 µM)	0.962
CCNC(=O)c1noc(-c2cc(C(C)C)c(O)cc2O)c1-c1ccc(CN2CCOCC2)cc1 [Luminespib] + CS(=O)(=O)N1CCN(Cc2cc3nc(-c4cccc5[nH]ncc45)nc(N4CCOCC4)c3s2)CC1 [Pictilisib] (partner 1 µM)	0.36
CCNC(=O)c1noc(-c2cc(C(C)C)c(O)cc2O)c1-c1ccc(CN2CCOCC2)cc1 [Luminespib] + CC1(C)CCC(c2ccc(Cl)cc2)=C(CN2CCN(c3ccc(C(=O)NS(=O)(=O)c4ccc(N[C@H](CCN5CCOCC5)CSc5ccccc5)c(S(=O)(=O)C(F)(F)F)c4)cc3)CC2)C1 [Navitoclax] (partner 0.5 µM)	1.27
CCNC(=O)c1noc(-c2cc(C(C)C)c(O)cc2O)c1-c1ccc(CN2CCOCC2)cc1 [Luminespib] + Cc1nc(Nc2ncc(C(=O)Nc3c(C)cccc3Cl)s2)cc(N2CCN(CCO)CC2)n1 [Dasatinib] (partner 0.075 µM)	0.333

The record that follows has no relative viability shown yet.
# relative viability of CCNC(=O)c1noc(-c2cc(C(C)C)c(O)cc2O)c1-c1ccc(CN2CCOCC2)cc1 [Luminespib] + C[C@@H](Oc1cc(-c2cnn(C3CCNCC3)c2)cnc1N)c1c(Cl)ccc(F)c1Cl [Crizotinib] (partner 1 µM) = 0.984
